Source listed as PubChem BioAssay AID1159580.

Test: chemical genetic growth profiling, strain panel (AID 1159580);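 note: tested at 20 µM; growth read once vehicle control cultures reached saturation at 30 °C; 1 = growth at the plate median or of vehicle wells; lower values mean less growth of the strain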
Settings: S. cerevisiae deletion strains, growth OD, locus YPR141C, strain kar3
Out of some 5,500 compounds screened, about 2,000 (36%) were called active. Inconclusive results (about 18%) are left out. Cut-off read from the data, not from the text of the source: active = normalized growth mostly below about 0.91 (no sharp cut-off); inconclusive = no clear call, values can overlap the other calls; inactive = mostly above about 0.92. Some of the results follow.
Outcome codes: yes (1) = active, no (0) = inactive

molecule	cat
O=C(CC[N+](=O)[O-])OC[C@H]1O[C@@H](O)[C@H](OC(=O)CC[N+](=O)[O-])[C@@H](OC(=O)CC[N+](=O)[O-])[C@@H]1OC(=O)CC[N+](=O)[O-]	no (0)
O=C(O)C1(O)C[C@@H](O)C(O)[C@H](O)C1 (stereo not given in full)	no (0)
CS(=O)(=O)c1ccc(C2=C(c3ccccc3)C(=O)OC2)cc1	no (0)
CN(C)c1ccc(C(=C2C=CC(=[N+](C)C)C=C2)c2ccc(N(C)C)cc2)cc1	yes (1)
COCCc1ccc(OCC(O)CNC(C)C)cc1 (stereo not given)	no (0)
CN[C@@H](C)[C@@H](O)c1ccccc1	no (0)
CN1CCCN=C1COC(=O)C(O)(c1ccccc1)C1CCCCC1 (stereo not given)	no (0)
CCCCCCCCNC(C)C(O)c1ccc(SC(C)C)cc1 (stereo not given)	no (0)
O=C1C=CC(=C(c2ccc(O)cc2)c2ccc(O)cc2)C=C1	no (0)
O=C(O)c1cc2ccccc2c(Cc2c(O)c(C(=O)O)cc3ccccc23)c1O	no (0)
